ASSAY_NAME: NCI Yeast Anticancer Drug Screen. Data for the sgs1 mgt1 strain (AID 161)
MEASUREMENT_SETUP: S. cerevisiae sgs1 mgt1 strain, at 50.0 µM
About 79,000 compounds went through this panel and 15% of them were active in at least one assay; those are over-represented in the sample as a whole. Active and inactive are the calls of the source. No stated cut-off is given here; in the data, active means growth inhibition above about 70%; inactive means the rest.
Classes used: Y (active), N (inactive)

| MOLECULE | CATEGORY_LABEL |
| --- | --- |
| COc1ccc(/C=C/[N+](=O)[O-])c(OC)c1OC | Y |
| CCCCCCC1CC2(Cl)C(Cl)=C(Cl)C1(Cl)C2(Cl)Cl (centres undefined) | Y |
| C[N-]c1nnnn1C.[Au+].c1ccc([PH+](c2ccccc2)c2ccccc2)cc1 | Y |
| Cc1cc[n+](C2=C(Nc3cccc(C(F)(F)F)c3)C(=O)c3ccccc3C2=O)cc1 | N |
| [Pt].c1ccc(P(CCP(c2ccccc2)c2ccccc2)CCP(c2ccccc2)c2ccccc2)cc1 | Y |
| CC/C(=C(/CC)c1ccc(OP(N)(=O)N(CCCl)CCCl)cc1)c1ccc(OP(N)(=O)N(CCCl)CCCl)cc1 (centres undefined) | N |
| Cc1ccc(S)cc1.[Pb] | N |
| CN(C)CCCNc1ccnc2c(COC(=O)N(CCCl)CCCl)ccc([N+](=O)[O-])c12 | Y |
| CC(C)C1(NC(=O)C2C=C3c4cccc5[nH]cc(c45)CC3N(C)C2)OC2(O)C3CCCN3C(=O)C(Cc3ccccc3)N2C1=O (centres undefined) (tested in a mixture with another compound) | Y |
| S=P(Nc1ccccc1)(Oc1ccccc1)c1ccccc1 (centres undefined) | Y |
| C[CH2][Pb]([CH2]C)([CH2]C)[n]1cnc2ccccc21 | Y |
| CCOc1cc(/C=C/[N+](=O)[O-])ccc1O | Y |
| Cc1cc(N(CCCl)CCCl)ccc1CN1CCCN(Cc2ccc(N(CCCl)CCCl)cc2C)C1c1cccc(F)c1 | Y |
| CCOP(=S)(OCC)OC(c1ccc(Cl)cc1)c1ccc(Cl)cc1 | N |
| C[N+]1(CCCl)CC[N+](C)(CCCl)CC1 (centres undefined) | Y |
| Nc1cc(Cl)ccc1C(=O)c1ccccc1Cl | Y |
| COC(=O)C1=C(C(=O)OC)SC2(S1)C(C(=O)OC)=C(C(=O)OC)Sc1c2ssc1=O | Y |
| COC1OC(COC(C)=O)C(OC(C)=O)C(OC(C)=O)[CH]1[Hg][I] (centres undefined) | Y |
| O=c1oc2ccccc2c(O)c1C(c1ccco1)c1c(O)c2ccccc2oc1=O | N |
| CC(=O)C1C2c3ccccc3C(c3ccccc32)C1C (centres undefined) | N |
| C=CO/C(C)=C(\[Se]c1ccccc1)C(C)=O | Y |
| C[CH2][Sn]([Cl])([CH2]C)[O][Sn]([Cl])([CH2]C)[CH2]C | Y |
| Cn1cc(NC(=O)c2cc(NC(=O)CN=C(N)N)cn2C)cc1C(=O)NCCC(=N)N | Y |
| Oc1cccc2nc3ccccc3nc12 | N |
| CCOc1c(Br)cc(/C=C/[N+](=O)[O-])cc1OC | Y |
| CCCCCCCCCCCCCCCCCC[N+](C)(C)C | Y |
| S=P(Nc1ccccc1)(Nc1ccccc1)Nc1ccccc1 | Y |
| CCOP(=O)(CC(C)P(=O)(OCC)OCC)OCC.C[CH2][Sn]([Cl])([Cl])[CH2]C (centres undefined) | N |
| ClC1=C(Cl)C2(Cl)C(C3CO3)CC1(Cl)C2(Cl)Cl (centres undefined) | Y |
| O=C(c1ccccc1)C1C(c2ccccc2[N+](=O)[O-])N1C1CCCCC1 (centres undefined) | Y |
| C[n+]1c(/C=C/c2ccc(O)c3ncccc23)[se]c2ccccc21 | Y |
| [Cl][Sn]1([c]2ccccc2)[O]CCNCC[O]1 | Y |
| [Ni+2].[SH2+]C([SH2+])=Nc1ccccc1.[SH2+]C([SH2+])=Nc1ccccc1.c1ccc(C[P+](c2ccccc2)(c2ccccc2)c2ccccc2)cc1 | Y |
| CCC1(O)C(=O)OCc2c1cc1n(c2=O)Cc2cc3ccc(C#N)cc3nc2-1 (centres undefined) | N |
| COc1ccccc1/C=C(/C)[N+](=O)[O-] | Y |
| OC1(c2ccccc2)CC2CCC(C1)N2CCCC(O)(c1ccccc1)c1ccccc1 (centres undefined) | Y |
| C[C@]12CC[C@H](O)CC1=CC[C@@H]1[C@@H]2CC[C@]2(C)C(=O)CC[C@@H]12 | Y |
| C/C(=N\NC(N)=O)C(CN1CCOCC1)C(c1ccccc1)c1c(O)c2ccccc2oc1=O (centres undefined) | Y |
| O=S(=O)(O)c1ccc(Cl)cc1.[Cd] | N |
